The entries below are paired with their reported normalised response.
Tested on: CAL-120
Experiment: normalised response (% of control), CellTiter-Glo; higher = more viable cells (100 = DMSO, 0 = benzethonium chloride kill control)
Settings: incubation time: 72 h
parameter: normalised response (%)

1) CC[C@H](CO)Nc1nc(NCc2ccccc2)c2ncn(C(C)C)c2n1 [Seliciclib] (1000 nM): 97.4
2) CCN(CC)CCCC(C)Nc1ccnc2cc(Cl)ccc12 (stereo not drawn) [Chloroquine] (10 nM): 103
3) CN[C@@H](C)C(=O)N[C@H]1CN(C(=O)CC(C)C)CC[C@H]2CC[C@@H](C(=O)NC(c3ccccc3)c3ccccc3)N2C1=O [AT-406] (10 nM): 96.7
4) Cc1nc(C(=O)NCC(=O)O)c(O)c2ccc(Oc3ccccc3)cc12 [FG-4592] (1 nM): 98.5
5) CN(C)C(=N)NC(=N)N [Metformin] (10000 nM): 106
6) CC(C)n1cnc2c(NCCc3ccc(O)cc3)nc(-c3csc4ccccc34)nc21 [StemRegenin 1] (10 nM): 97.4
7) CC(C)(C)c1nc(-c2cccc(NS(=O)(=O)c3c(F)cccc3F)c2F)c(-c2ccnc(N)n2)s1 [Dabrafenib] (0.25 nM): 98.9
8) CC1(C)CCC(c2ccc(Cl)cc2)=C(CN2CCN(c3ccc(C(=O)NS(=O)(=O)c4ccc(N[C@H](CCN5CCOCC5)CSc5ccccc5)c(S(=O)(=O)C(F)(F)F)c4)cc3)CC2)C1 [Navitoclax] (1000 nM): 67.8
